Could you please report measured growth for the items listed next?
Tested on: TK-10 renal
assay: NCI-60 one-dose screen, 48 h (100 = growth as untreated, 0 = no growth, -100 = all killed)
assay_setup: 10 µM unless noted
Compounds without any hit were thinned out: in the full panel of roughly 83,000, 20% have a hit.
Answers are plain numbers, in %.

Cc1cc(O)ccc1O :: 123
C=CCNC(=O)c1ccc(OC)cc1 :: 120
COc1ccc(NC(=O)CCl)cc1 :: 118
CC1(c2ccccc2)NC(=O)NC1=O (stereo not given) :: 98.8
CN(C)c1ccc(C(c2ccc(O)cc2)c2ccc(N(C)C)cc2)cc1 :: 117
CC(C)=CC(=O)OC(=O)C=C(C)C :: 102
COC(=O)c1ccc(NC(=O)CCl)cc1 :: 88
NCCCN :: 107

Okay, here is my list. What is growth for each of these?
1. O=C(NCCNC(=O)c1ccc(Cl)cc1Cl)c1ccc(Cl)cc1Cl
2. c1c(-c2cc(C3CC3)[nH]n2)n[nH]c1C1CC1

1. 120
2. 106

----------
Would you kindly list growth for each of these compounds?
Tested on: DU-145 prostate
assay: NCI-60 one-dose screen, 48 h (100 = growth as untreated, 0 = no growth, -100 = all killed)
assay_setup: 10 µM
This is part of a sample that, as a whole, favours compounds with a hit. Of some 83,000 tested, about 20% had one in any assay.
Numbers only, in %.

# count of solved cases: 2
CCN1C(=O)/C(=C/C=C/N(C)c2ccccc2)SC1=S :: 88.8
Cc1cc2nc(CC(=O)c3cccc([N+](=O)[O-])c3)c(=O)[nH]c2cc1C :: 100

Please report growth for every entry that follows.
1. Oc1ccc(N=Nc2ccc(Br)cc2)c(O)c1
2. Cc1nc2c(ccc3ccccc32)s1

[-11.8, 123]

Would you mind giving growth for every compound in the list below?
1. CS(=O)CC1=NC(=N)N=C1CS(C)=O (stereo not given)
2. CCCCCCCCCCC(C)Br (stereo not given)
3. CC1NC(=O)NC1CCCCCC(=O)O (stereo not given)
4. Cc1ccc(C(=O)N/N=C/c2ccc3c(c2)OCO3)cc1

1. 111
2. 113
3. 108
4. 112

Hello, I would appreciate it if you could give growth for each entry below.
1. CN(C)c1ccc(C(c2ccc(O)cc2)c2ccc(N(C)C)cc2)cc1
2. CCCCCCCCCCCCCC(=O)Oc1ccc[nH]c1=O

1. 101
2. 103

Batch of 2 compounds: report growth for each.
1. NC(N)=Nc1cc2ccccc2c2ccccc12
2. CC1(C(=O)O)NC(C(=O)O)Cc2c1[nH]c1ccccc21 (stereo not given)

84.9
110

----------
Test system: K-562 leukemia
assay: NCI-60 one-dose screen, 48 h (100 = growth as untreated, 0 = no growth, -100 = all killed)
assay_setup: 10 µM
About 83,000 compounds went through this panel and 20% of them were active in at least one assay; those are over-represented in the sample as a whole.
Please provide measured growth for the entries that follow.
Numbers only, in %.

Some solved entries appear below for comparison.
CCC(C)(O)c1ccc(C)cc1 (stereo not given) :: 116
CCc1ccc(/C(C#N)=C/C=C/c2ccccc2)cc1 :: 14.9
c1ccc2c(c1)Sc1ccccc1S2 :: 103
CCC(C)(C)C1CCC(O)CC1 (stereo not given) :: 110

// switching to the query compound
Note growth for the compound shown: Nc1ccc(C(=O)c2ccc(N)c(Br)c2)cc1Br
15.7

----------
Test system: UO-31 renal
assay: NCI-60 one-dose screen, 48 h (100 = growth as untreated, 0 = no growth, -100 = all killed)
assay_setup: 10 µM
This is part of a sample that, as a whole, favours compounds with a hit. Of some 83,000 tested, about 20% had one in any assay.
Please go through the items and note down their growth.
Numbers only, in %.

CCO/C=C1\SC(=S)N(c2cccc(C)c2)C1=O :: 79.3
OC(c1ccccn1)C(O)c1ccccn1 (centres undefined) :: 89
O/N=C/c1ccc(O)cc1O :: 99

Look up and report growth, with UO-31 renal as system, for COC(=O)Nc1nc2ccc(C(=O)c3cccs3)cc2[nH]1
48.8

----------
Test system: BT-549 breast
assay: NCI-60 one-dose screen, 48 h (100 = growth as untreated, 0 = no growth, -100 = all killed)
assay_setup: 10 µM
This is part of a sample that, as a whole, favours compounds with a hit. Of some 83,000 tested, about 20% had one in any assay.
Please respond with reported growth for every item in the list.
Numbers only, in %.

CCC/C=C(\C)C(C)(C#N)C(=O)OCC (configuration not stated) :: 116

Go through the list and state growth for each entry.
1. CCOc1ccccc1/C=N/Nc1nc2ccccc2o1
2. CCNc1nc2c(cnn2C)c(=O)[nH]1
3. Cc1cc2nc(CO)[nH]c2cc1C
4. CC(C)C1CCCCC1O (configuration not stated)
5. c1csc(-c2cc(-c3cc(-c4cccs4)[nH]n3)n[nH]2)c1
6. C1CNC(C2=NCCN2)=N1
7. COc1ccc2c(c1)CCc1c-2n[nH]c1-c1[nH]nc2c1CCc1cc(OC)ccc1-2

1: 98.3; 2: 102; 3: 105; 4: 105; 5: 90.7; 6: 111; 7: 54.6

----------
Tested on: HOP-92 NSCLC
assay: NCI-60 one-dose screen, 48 h
assay_setup: 10 µM
This is part of a sample that, as a whole, favours compounds with a hit. Of some 83,000 tested, about 20% had one in any assay. Active and inactive are the calls of the source. How the source made its calls: active means growth percent below 10; inactive means the rest.
Outcome (select one): active, inactive

CN(C)CCN(C)CC(C)(C)C(=O)/C=C/c1ccc(Cl)cc1 :: active
COc1ccc(-c2cc3c(nn2)-c2ccccc2C3=O)cc1 :: inactive
c1ccc(Cc2ccccc2)cc1 :: inactive
Nc1ccc(N)c([N+](=O)[O-])c1 :: inactive

Now consider the entry below.
Test call, this compound: Sc1ccc(Nc2c3ccccc3nc3ccccc23)cc1
inactive

----------
System: KM12 colon
assay: NCI-60 one-dose screen, 48 h (100 = growth as untreated, 0 = no growth, -100 = all killed)
assay_setup: 10 µM
About 83,000 compounds went through this panel and 20% of them were active in at least one assay; those are over-represented in the sample as a whole.
Give measured growth for each item. Keep answers brief.
Numbers only, in %.

Consider the reported growth for these molecules:
O=C(CCl)Nc1ccc2c(c1)C(=O)c1ccc(NC(=O)CCl)cc1C2=O :: -72.2
c1ccc2c(N3CCCCC3)ncnc2c1 :: 103
CCOC(=O)CNN :: 101
N#CCc1ccc([N+](=O)[O-])cc1 :: 109
NC(=O)c1ccc(N=C(N)N=C(N)N)cc1 :: 99.3

Working through the 7 molecules below one at a time, give growth for each.
1. O=C(O)c1ccc(S(=O)(=O)O)cc1
2. c1ccc(/C(=N\N=C(/c2ccccc2)c2cccs2)c2cccs2)cc1
3. CCOC(=O)c1[nH]c(C)c(C(=O)O)c1C
4. O=[N+]([O-])c1ccc(-c2noc(-c3cccs3)n2)cc1
5. COc1cc(C2NC(=O)C(C#N)=C(Nc3cccc(C)c3)S2)ccc1O (stereo unspecified)
6. COC(=O)/C=C1\Sc2cc(F)ccc2NC1=O
7. Nc1ccc(NC(=O)c2cccc(N)c2)cc1

1: 109; 2: 97.1; 3: 110; 4: 88.5; 5: 104; 6: 107; 7: 103

Hi! Can you tell me growth for each of these molecules?
1. CCCC1(c2ccccc2)NC(=O)NC1=O (stereo unspecified)
2. NCCC(=O)c1ccc(Cl)cc1

110
98.1

Below are some molecules; for each one, tell me its growth.
1. CC(C(=O)O)(C1CCCCC1)C1(O)CCCCC1 (stereo unspecified)
2. COC(=O)c1ccc(NC(=O)CCl)cc1
3. O=[N+]([O-])c1ccc(CO)cc1

[98.4, 83.6, 105]

----------
Tested on: A549/ATCC NSCLC
assay: NCI-60 one-dose screen, 48 h (100 = growth as untreated, 0 = no growth, -100 = all killed)
assay_setup: 10 µM
This is part of a sample that, as a whole, favours compounds with a hit. Of some 83,000 tested, about 20% had one in any assay.
Assign growth to each entry below.
Give bare numbers, in %.

CCCCNC(=O)C(=O)NCCCC :: 111
CCCCC(CC)COC(C)=O (stereo not drawn) :: 105

Please give growth for each item listed below.
1. Nc1nc(N)c2cc(S(=O)(=O)c3cccc(C(F)(F)F)c3)ccc2n1
2. S=c1nn[nH]c2ccccc12
3. Cc1nc2c(ccc3ccccc32)s1
4. O=C(NN=C1CCCCC1)C(=O)NN=C1CCCCC1
5. COC1=CC(=O)c2nc(Cl)ccc2C1=O
6. C=C1CC/C=C(\C)C(=O)C[C@@H]2[C@@H]1CC2(C)C

[15.9, 96.4, 98.6, 116, 98.3, 109]
